Listed here are molecules together with their documented ka (1/Ms) cyBCMA @ 37° C..
test system: cyBCMA; experiment: Kinetics and affinity of cyBCMA/human IgG interactions by SPR (Bio-Rad Proteon XPR36); format: binding, cynomolgus; conditions: 37° C.

- MOLECULE: "L3.PY/L3.KY/H2.YQ: anti-BCMA antibody (antibody, V domains shown) VH: EVQLLESGGGLVQPGGSLRLSCAASGFTFGSYAMTWVRQAPGKGLEWVSAISYQGGNTFYADSVKGRFTISRDNSKNTLYLQMNSLRAEDTAVYYCARVSPIASGMDYWGQGTLVTVSS VL: EIVLTQSPGTLSLSPGERATLSCRASQSVSSSYLAWYQQKPGQAPRLLIYGASSRATGIPDRFSGSGSGTDFTLTISRLEPEDFAVYYCKYYPYPPSFTFGQGTKVEIK"
  ka (1/Ms) cyBCMA @ 37° C., M⁻¹ s⁻¹: "1.27e+06"
- MOLECULE: "L3.PY/L1.PH/H2.HA: anti-BCMA antibody (antibody, V domains shown) VH: EVQLLESGGGLVQPGGSLRLSCAASGFTFGSYAMTWVRQAPGKGLEWVSAISHAGGNTFYADSVKGRFTISRDNSKNTLYLQMNSLRAEDTAVYYCARVSPIASGMDYWGQGTLVTVSS VL: EIVLTQSPGTLSLSPGERATLSCRASQSVSPHYLAWYQQKPGQAPRLLIYGASSRATGIPDRFSGSGSGTDFTLTISRLEPEDFAVYYCQHYPYPPSFTFGQGTKVEIK"
  ka (1/Ms) cyBCMA @ 37° C., M⁻¹ s⁻¹: "1.61e+06"
- MOLECULE: "L3.PY/L1.AH/H2.DY: anti-BCMA antibody (antibody, V domains shown) VH: EVQLLESGGGLVQPGGSLRLSCAASGFTFGSYAMTWVRQAPGKGLEWVSAIDYSGGNTFYADSVKGRFTISRDNSKNTLYLQMNSLRAEDTAVYYCARVSPIASGMDYWGQGTLVTVSS VL: EIVLTQSPGTLSLSPGERATLSCRASQSVSAHYLAWYQQKPGQAPRLLIYGASSRATGIPDRFSGSGSGTDFTLTISRLEPEDFAVYYCQHYPYPPSFTFGQGTKVEIK"
  ka (1/Ms) cyBCMA @ 37° C., M⁻¹ s⁻¹: "2.32e+06"
- MOLECULE: "L3.PY/L1.PH/H3.AE: anti-BCMA antibody (antibody, V domains shown) VH: EVQLLESGGGLVQPGGSLRLSCAASGFTFGSYAMTWVRQAPGKGLEWVSAISGSGGNTFYADSVKGRFTISRDNSKNTLYLQMNSLRAEDTAVYYCARVSPIAAEMDYWGQGTLVTVSS VL: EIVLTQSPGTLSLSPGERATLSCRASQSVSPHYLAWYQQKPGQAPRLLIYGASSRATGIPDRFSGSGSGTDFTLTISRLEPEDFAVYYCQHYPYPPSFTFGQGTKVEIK"
  ka (1/Ms) cyBCMA @ 37° C., M⁻¹ s⁻¹: "2.61e+06"
- MOLECULE: "L3.PY/L3.KF/H3.TAQ: anti-BCMA antibody (antibody, V domains shown) VH: EVQLLESGGGLVQPGGSLRLSCAASGFTFGSYAMTWVRQAPGKGLEWVSAISGSGGNTFYADSVKGRFTISRDNSKNTLYLQMNSLRAEDTAVYYCTRVSPIAAQMDYWGQGTLVTVSS VL: EIVLTQSPGTLSLSPGERATLSCRASQSVSSSYLAWYQQKPGQAPRLLIYGASSRATGIPDRFSGSGSGTDFTLTISRLEPEDFAVYYCKFYPYPPSFTFGQGTKVEIK"
  ka (1/Ms) cyBCMA @ 37° C., M⁻¹ s⁻¹: "2.01e+06"
